// reported Breakthrough (1% T at 0.1%) per item
# ASSAY SUMMARY: % transmission spectrum of 0.1% solution (breakthrough, steepness)
# Format: physicochemical
# STUDY CONDITIONS: value in nm where transmittance increases beyond 1%; 0.1% solution
PROPERTY NAME: Breakthrough (1% T at 0.1%) (nm)

- MOLECULE: "CCCCC(CC)COC(=O)c1ccc2c(c1)CCN2C=C(C(=O)c1c(C)cc(C)cc1C)c1ccccc1 (stereo not shown)"
  SCALE UNIT: "nm"
  NUMERIC VALUE: 399
- MOLECULE: "CCCCC(CC)COC(=O)c1ccc2c(c1)CCN2/C=C(/C(=O)C(C)(C)C)c1ccc(C#N)cc1 (stereo not shown)"
  SCALE UNIT: "nm"
  NUMERIC VALUE: 402
- MOLECULE: "CCCCC(CC)COC(=O)c1ccc2c(c1)CCN2/C=C(/C(=O)c1ccncc1)c1ccccc1 (stereo not shown)"
  SCALE UNIT: "nm"
  NUMERIC VALUE: 431
- MOLECULE: "CC1(C)CN(/C=C(/C(=O)c2ccccc2)c2ccccc2)c2ccccc21"
  SCALE UNIT: "nm"
  NUMERIC VALUE: 405

###

# ASSAY SUMMARY: UV absorbance spectrum in solution (λmax, λcrit, extinction coefficients)
# Type: physicochemical
# STUDY CONDITIONS: critical wavelength
PROPERTY NAME: λcrit (nm)

- MOLECULE: "CC1(C)CN(/C=C(\\C(=O)C(F)(F)F)c2ccccc2)c2ccccc21"
  NUMERIC VALUE: 389
- MOLECULE: "CN(C)S(=O)(=O)c1ccc(C(=O)/C(=C/N2CCc3ccccc32)c2ccccc2)cc1"
  NUMERIC VALUE: 390
- MOLECULE: "O=C(/C(=C\\N1CCc2cc(C(F)(F)F)ccc21)c1ccccc1)C(F)(F)F"
  NUMERIC VALUE: 386
- MOLECULE: "O=C(/C(=C\\N1CCc2ccc([N+](=O)[O-])cc21)c1ccccc1)C(F)(F)F"
  NUMERIC VALUE: 387
- MOLECULE: "CCN(/C=C(/C(=O)c1ccc(S(=O)(=O)N(C)C)cc1)c1ccccc1)c1ccccc1"
  NUMERIC VALUE: 381
- MOLECULE: "CCN(/C=C(\\C(=O)C(F)(F)F)c1ccccc1)c1ccc(Br)cc1"
  NUMERIC VALUE: 367

###

# ASSAY SUMMARY: UV absorbance spectrum in solution (λmax, λcrit, extinction coefficients)
# Format: physicochemical
# STUDY CONDITIONS: mass extinction coefficient
PROPERTY NAME: E (1%, 1 cm)

- COMPOUND: "CCCCC(CC)COC(=O)c1ccc2c(c1)CCN2/C=C(\\C(=O)C(F)(F)F)c1ccccc1 (centres unmarked)"
  NUMERIC VALUE: 1067
- COMPOUND: "COC(=O)c1ccc2c(c1)CCN2/C=C(/C(=O)C(=O)OC(C)(C)c1ccccc1)c1ccccc1"
  NUMERIC VALUE: 1440
- COMPOUND: "O=C(/C(=C\\N1CCN(/C=C(/C(=O)C(F)(F)F)c2ccccc2)CC1)c1ccccc1)C(F)(F)F"
  NUMERIC VALUE: 689
- COMPOUND: "O=C(/C(=C\\N1CCOCC1)c1ccccc1)C(F)(F)F"
  NUMERIC VALUE: 855
- COMPOUND: "COC(=O)c1ccc2c(c1)CCN2/C=C(/C(=O)c1ccccc1)c1ccccc1"
  NUMERIC VALUE: 1096

###

// reported λcrit per item
# ASSAY SUMMARY: UV absorbance spectrum in solution (λmax, λcrit, extinction coefficients)
# Assay type: physicochemical
# STUDY CONDITIONS: critical wavelength

- COMPOUND: "Cc1ccccc1C(=O)/C(=C/N1CCc2ccccc21)c1ccccc1"
  SCALE UNIT: "nm"
  λcrit: 378
- COMPOUND: "CCCCC(CC)COC(=O)c1ccc2c(c1)CCN2/C=C(/C(=O)C(C)(C)C)c1ccc(C#N)cc1 (stereo not shown)"
  SCALE UNIT: "nm"
  λcrit: 385
- COMPOUND: "CCCCC(CC)COC(=O)c1ccc(N(/C=C(\\C(=O)C(F)(F)F)c2ccccc2)CC)cc1 (stereo not shown)"
  SCALE UNIT: "nm"
  λcrit: 374
- COMPOUND: "O=C(C(=O)N1CCc2ccccc21)/C(=C/N1CCc2ccccc21)c1ccccc1"
  SCALE UNIT: "nm"
  λcrit: 388
- COMPOUND: "CCN(CCOC(=O)c1ccc2c(c1)CCN2/C=C(\\C(=O)C(F)(F)F)c1ccccc1)C(=O)OC(C)(C)C"
  SCALE UNIT: "nm"
  λcrit: 391
- COMPOUND: "CCN(/C=C(\\C(=O)C(F)(F)F)c1ccccc1)c1cccc(Br)c1"
  SCALE UNIT: "nm"
  λcrit: 366
- COMPOUND: "COC(=O)c1ccc2c(c1)CCN2/C=C(/C(=O)c1ccccc1O[Si](C)(C)C(C)(C)C)c1ccccc1"
  SCALE UNIT: "nm"
  λcrit: 384

###

// reported ε per item
# ASSAY SUMMARY: UV absorbance spectrum in solution (λmax, λcrit, extinction coefficients)
# Format: physicochemical
# STUDY CONDITIONS: molar extinction coefficient; in M-1 cm-1 (unit assumed)
PROPERTY NAME: ε

- MOLECULE: "O=C(/C(=C\\N1CCCC1)c1ccccc1)C(F)(F)F"
  PROPERTY NAME: "ε"
  NUMERIC VALUE: 20673
- MOLECULE: "CCN(/C=C(\\C(=O)C(F)(F)F)c1ccccc1)CCCCCCN(/C=C(\\C(=O)C(F)(F)F)c1ccccc1)CC"
  PROPERTY NAME: "ε"
  NUMERIC VALUE: 30981
- MOLECULE: "CCN(/C=C(\\C(=O)C(F)(F)C(F)(F)C(F)(F)F)c1ccccc1)c1ccccc1"
  PROPERTY NAME: "ε"
  NUMERIC VALUE: 18948
